Parameter 15-day hair length: see the listing below.
system: mouse hair loss model; assay: Mouse hair loss (androgenic alopecia) model: hair length; assay type: in vivo, C57BL/6 mice; details: mouse AGA model; external 2% tincture twice a day
Marks after values point to notes of the source that are not given here.

Field: example entries. Status: answers known.
{"columns": ["compound", "target.under.test", "15-day hair length"],
 "data": [
  ["O=C(c1ccc(-c2ccccc2Cl)cc1)N(c1ncccc1Cl)[C@@H]1CCCNC1", "mouse hair loss model", "0.628* cm"],
  ["O=C(c1ccc(-n2nnc3cccnc32)cc1)N(c1ncccc1Cl)[C@@H]1CCNC1", "mouse hair loss model", "0.682 * cm"],
  ["CN1CCC[C@@H](N(C(=O)c2ccc(-n3nnc4cccnc43)cc2)c2ncccc2Cl)C1", "mouse hair loss model", "0.653* cm"],
  ["O=C(c1ccc(-n2nnc3cccnc32)cc1)N(c1ncccc1Cl)C1CCCC(O)C1 (stereo not shown)", "mouse hair loss model", "0.641* cm"],
  ["Nc1cc(N2CCCCC2)nc(N)[n+]1[O-] [Positive control group, minoxidil, reference compound]", "mouse hair loss model", "0.591* cm"]
]}

*Q* Please give the measured 15-day hair length for this compound: NC1CCCC(N(C(=O)c2ccc(-n3nnc4cccnc43)cc2)c2ncccc2Cl)C1 (stereo not shown)
*A* 0.637* cm

*Q* Please give the measured 15-day hair length for this compound: `Nc1ccccc1-c1ccc(C(=O)N(c2ncccc2Cl)[C@@H]2CCCNC2)cc1`
*A* 0.665* cm

*Q* Please give the measured 15-day hair length for this compound: `O=C(c1ccc(-c2ccccc2-c2nnn[nH]2)cc1)N(c1ncccc1Cl)[C@@H]1CCCNC1`
*A* 0.623* cm

*Q* Please give the measured 15-day hair length for this compound: CNC1CCCC(N(C(=O)c2ccc(-n3nnc4cccnc43)cc2)c2ncccc2Cl)C1 (stereo not shown)
*A* 0.646* cm

*Q* Please give the measured 15-day hair length for this compound: `CCN1CCC[C@@H](N(C(=O)c2ccc(-n3nnc4cccnc43)cc2)c2ncccc2Cl)C1`
*A* 0.676* cm
